target: recombinant human GST-Syk (Homo sapiens); construct: purchased Carna Biosciences 08-176; assay: Homogeneous Time-Resolved Fluorescence (HTRF) assay for the recombinant human Syk enzyme; type: biochemical; settings: recombinant human GST-Syk 5 pM, ATP 25 μM, 10-dose titration 10 μM to 0.508 nM; read-out: rhSYK Activity IC50
Could you please mark criterion met for values of IC50 below 30 nM and criterion not met for values at or above it?

Cc1cc(Nc2nccc(C(F)F)n2)cc(-c2cn(C3CCCCC3(C)O)nn2)c1 (single isomer, unassigned) [Example 7.20] | criterion met
Cc1cc(Nc2nccc(C(F)(F)F)n2)cc(-n2cc([Si](C)(C)C)nn2)c1 | criterion not met
COCC(O)Cn1cc(-c2cc(C)cc(Nc3nccc(C(F)(F)F)n3)c2)nn1 (racemic) | criterion not met
Cc1cc(Nc2cc(C(F)(F)F)ccn2)nc(-c2cn(C(C)C(=O)NCc3cc(-c4ccco4)on3)nn2)c1 (stereo not shown) | criterion not met
Cc1cc(Nc2nccc(C(F)(F)F)n2)cc(-c2cn(CC(O)CO)nn2)c1 (racemic) | criterion not met
Cc1cc(Nc2cc(C(F)(F)F)ccn2)nc(-c2cn(CCC(=O)O)nn2)c1 | criterion not met
Cc1cc(Nc2cc(C(F)(F)F)ccn2)nc(-c2cn(CC(O)C(C)C)nn2)c1 (stereo not shown) | criterion met
